Target: DNA topoisomerase 1 (Homo sapiens)
Sequence (whole entry): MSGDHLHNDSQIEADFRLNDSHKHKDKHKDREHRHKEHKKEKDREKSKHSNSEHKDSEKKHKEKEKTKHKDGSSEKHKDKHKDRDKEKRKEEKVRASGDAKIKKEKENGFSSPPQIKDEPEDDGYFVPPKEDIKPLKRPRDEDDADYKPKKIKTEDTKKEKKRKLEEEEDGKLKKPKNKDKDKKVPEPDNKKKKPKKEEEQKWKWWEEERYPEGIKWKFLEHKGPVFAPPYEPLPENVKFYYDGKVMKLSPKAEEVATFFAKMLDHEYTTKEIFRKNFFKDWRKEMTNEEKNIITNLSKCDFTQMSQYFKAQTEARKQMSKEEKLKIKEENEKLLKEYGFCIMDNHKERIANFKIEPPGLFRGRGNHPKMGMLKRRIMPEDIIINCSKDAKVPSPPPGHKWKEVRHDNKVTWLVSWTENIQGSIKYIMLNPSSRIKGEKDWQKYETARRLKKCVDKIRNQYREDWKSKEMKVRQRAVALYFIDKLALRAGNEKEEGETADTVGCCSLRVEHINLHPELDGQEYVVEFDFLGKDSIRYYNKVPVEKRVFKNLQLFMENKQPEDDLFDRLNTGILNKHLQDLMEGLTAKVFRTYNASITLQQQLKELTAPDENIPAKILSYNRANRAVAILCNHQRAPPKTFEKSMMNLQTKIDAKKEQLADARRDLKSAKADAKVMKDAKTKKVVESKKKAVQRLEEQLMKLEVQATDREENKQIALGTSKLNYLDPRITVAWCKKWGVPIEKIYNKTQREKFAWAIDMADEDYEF
Experiment: Relative effective concentration that produces the same degree of cleavage on the plasmid DNA in the presence of human topoisomerase-1
Would you mind telling me the reported Topoisomerase-I activity of each entry?
Numbers only.

Here's what some known entries look like.
# Mol, Topoisomerase-I activity
data = [
    ("c1ccc(-c2ccc3[nH]c(-c4ccc5[nH]c(-c6ccc7[nH]ccc7c6)nc5c4)nc3c2)cc1", 50),
    ("Oc1nc2ccc(-c3nc4cc(-c5nc6cc(-c7ccccc7)ccc6[nH]5)ccc4[nH]3)cc2nc1O", 1),
    ("c1ccc(-c2ccc3[nH]c(-c4ccc5[nH]c(-c6ccc7[nH]nnc7c6)nc5c4)nc3c2)cc1", 1),
    ("c1ccc(-c2ccc3[nH]c(-c4ccc5[nH]c(-c6ccc7[nH]cnc7c6)nc5c4)nc3c2)cc1", 1),
]

Field: next compound
# get_value(readout='Topoisomerase-I activity', item= c1ccc(-c2ccc3[nH]c(-c4ccc5[nH]c(-c6ccc7cc[nH]c7c6)nc5c4)nc3c2)cc1 ) 5
